meta.source: patent US11739077B2

Please provide measured IC50 for the entries that follow.
- experimental-system: Human recombinant USP1/UAF1 (Homo sapiens (Human), UniProt O94782)
- Sequence (O94782 whole entry): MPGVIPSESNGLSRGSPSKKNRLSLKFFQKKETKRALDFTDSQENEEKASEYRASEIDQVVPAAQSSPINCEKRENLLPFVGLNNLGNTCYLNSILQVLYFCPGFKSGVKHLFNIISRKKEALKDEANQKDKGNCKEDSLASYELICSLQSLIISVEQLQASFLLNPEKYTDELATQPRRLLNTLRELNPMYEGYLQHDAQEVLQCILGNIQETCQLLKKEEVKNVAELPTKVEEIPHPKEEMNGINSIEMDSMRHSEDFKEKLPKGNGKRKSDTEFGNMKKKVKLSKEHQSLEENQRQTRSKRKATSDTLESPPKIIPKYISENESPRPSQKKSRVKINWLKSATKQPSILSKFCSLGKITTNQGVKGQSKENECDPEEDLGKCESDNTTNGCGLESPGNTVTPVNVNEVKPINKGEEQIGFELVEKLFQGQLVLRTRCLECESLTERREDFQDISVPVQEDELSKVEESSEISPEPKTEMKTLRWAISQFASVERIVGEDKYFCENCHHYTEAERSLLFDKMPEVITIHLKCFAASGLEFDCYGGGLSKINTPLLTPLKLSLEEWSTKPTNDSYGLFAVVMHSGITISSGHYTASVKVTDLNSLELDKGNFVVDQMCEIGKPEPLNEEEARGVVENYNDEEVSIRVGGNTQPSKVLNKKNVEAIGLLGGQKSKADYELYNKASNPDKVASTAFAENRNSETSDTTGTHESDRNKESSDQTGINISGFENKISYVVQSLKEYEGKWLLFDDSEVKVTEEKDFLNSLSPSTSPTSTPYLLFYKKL
- Sequence (Q8TAF3 whole entry partner): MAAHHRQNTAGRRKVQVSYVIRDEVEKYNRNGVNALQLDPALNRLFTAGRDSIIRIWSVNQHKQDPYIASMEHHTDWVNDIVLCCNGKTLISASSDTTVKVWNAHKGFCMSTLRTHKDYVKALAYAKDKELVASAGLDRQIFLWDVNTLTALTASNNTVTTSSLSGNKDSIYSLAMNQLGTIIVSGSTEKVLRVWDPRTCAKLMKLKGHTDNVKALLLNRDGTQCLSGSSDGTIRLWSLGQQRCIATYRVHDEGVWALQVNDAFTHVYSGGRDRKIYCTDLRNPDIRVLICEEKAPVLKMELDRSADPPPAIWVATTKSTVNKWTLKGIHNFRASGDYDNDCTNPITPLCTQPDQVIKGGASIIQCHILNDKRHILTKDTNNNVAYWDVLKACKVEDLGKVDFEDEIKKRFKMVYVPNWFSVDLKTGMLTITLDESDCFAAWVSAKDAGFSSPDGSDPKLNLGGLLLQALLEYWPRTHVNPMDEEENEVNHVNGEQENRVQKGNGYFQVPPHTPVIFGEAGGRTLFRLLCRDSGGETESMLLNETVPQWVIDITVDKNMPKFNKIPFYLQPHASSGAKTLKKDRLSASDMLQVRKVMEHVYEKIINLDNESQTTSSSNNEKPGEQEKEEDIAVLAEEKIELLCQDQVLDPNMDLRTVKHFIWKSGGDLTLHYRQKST
- assay-name: Enzymatic assay, USP1/UAF1 with Ubiquitin Rhodamine 110
- condition-description: 2 nM USP1/UAF1, 500 nM Ubiquitin Rhodamine 110, 15 minutes preincubation at RT

Qu. Quote IC50 reported for COc1ncnc(C2CC2)c1-c1nn(C)c2c1CN(c1ccc(-c3nc(C(F)(F)F)cn3C)cn1)CC2 [Example 5] please.
Ans. < 50 nM

Qu. Answer with the recorded IC50 of [2H]C([2H])([2H])n1nc(-c2c(OC)ncnc2C2CC2)c2c1CCN(c1ccc(-c3nc(C(F)(F)F)cn3C)cn1)C2 [Example 18] only.
Ans. < 50 nM

Qu. Tell us which IC50 value is on record for [2H]C([2H])([2H])n1nc(-c2c(OC)ncnc2C2CC2)c2c1CCN(c1ccc(-c3nc(C(F)(F)F)cn3C)cc1)C2 [Example 17]
Ans. < 50 nM

Qu. Tell me its IC50 given CC(C)c1ncncc1-c1nn(C)c2c1CN(c1ccc(-c3nc(C(F)(F)F)cn3C)cc1)CC2 [Example 2] as the entry.
Ans. 50 to 1000 nM

###

- Test system: MDA-MB-436 cells
- assay-name: MDA-MB-436 breast cancer cell proliferation assay (CellTiter-Glo)
- Format: cell-based
- condition-description: 7 days
parameter: IC50

Qu. Give a short answer stating reported IC50 for COc1ncnc(C2CC2)c1-c1nn(C)c2c1CN(c1ccc(-n3nc(C(F)(F)F)cc3C)cn1)CC2 .
Ans. 50 to 1000 nM

###

- experimental-system: Human recombinant USP1/UAF1 (Homo sapiens (Human))
- assay-name: Enzymatic assay, USP1/UAF1 with Ubiquitin Rhodamine 110
- Format: biochemical
- condition-description: 2 nM USP1/UAF1, 500 nM Ubiquitin Rhodamine 110, 15 minutes preincubation at RT
- Description: Human recombinant USP1/UAF1 expressed in baculovirus infected Sf21 cells were used (R&D, E-568-050). Test compound and/or vehicle was incubated with 2 nM of USP1/UAF1 in modified HEPES buffer pH 8.0 for 15 minutes at RT. The reaction was initiated by addition of 500 nM of Ubiquitin Rhodamine 110 (R&D, U-555-050) for kinetic reading. Slope change of fluorescence intensity was read spectrofluorimetrically at 485 nm/535 nm.
pIC50: −log10 of the molar value.
parameter: pIC50

Qu. Output pIC50 of COc1ncnc(C2CC2)c1-c1nn(C)c2c1CN(c1ccc(-c3nc(C(F)(F)F)cn3C(C)C)cn1)CC2 [Example 10]
Ans. > 7.30

Qu. Output measured pIC50 for this item: COc1ncnc(C2CC2)c1-c1n[nH]c2c1CN(c1ccc(-c3nc(C(F)(F)F)cn3C(C)C)cn1)CC2 [Example 20]
Ans. 6.00 to 7.30

Qu. Annotate the compound [2H]C([2H])([2H])n1nc(-c2c(OC)ncnc2C2CC2)c2c1CCN(c1ccc(-c3nc(C(F)(F)F)cn3C(C)C)cn1)C2 [Example 11] with its measured pIC50.
Ans. > 7.30

Qu. Annotate the compound COc1ncnc(C2CC2)c1-c1nn(C(F)F)c2c1CN(c1ccc(-c3nc(C(F)(F)F)cn3C(C)C)cn1)CC2 [Example 32] with its measured pIC50.
Ans. > 7.30

Qu. // fetch pIC50 given entry COc1ncnc(C2CC2)c1-c1nn(C)c2c1CN(c1ccc(-c3nc(C(F)(F)F)cn3C)nn1)CC2 [Example 29]
Ans. 6.00 to 7.30

Qu. Fill in reported pIC50 for this entry: CC(C)c1ncccc1-c1nn(C)c2c1CN(c1ccc(-c3nc(C(F)(F)F)cn3C)cc1)CC2 [Example 1]
Ans. > 7.30

Qu. Return pIC50 (reported value) for this compound: Cc1ncnc(C2CC2)c1-c1nn(C)c2c1CN(c1ccc(-c3nc(C(F)(F)F)cn3C)cn1)CC2 [Example 13]
Ans. 6.00 to 7.30
